biological target: CSNK1A1 (Homo sapiens, UniProt P48729); construct: PC9 cells were lysed in buffer containing 20 mM HEPES pH 7.5; endogenous in cells; test: KinAffinity target profiling; conditions: PC9 cell extract, read-out: KD_free
Sequence (P48729 whole entry): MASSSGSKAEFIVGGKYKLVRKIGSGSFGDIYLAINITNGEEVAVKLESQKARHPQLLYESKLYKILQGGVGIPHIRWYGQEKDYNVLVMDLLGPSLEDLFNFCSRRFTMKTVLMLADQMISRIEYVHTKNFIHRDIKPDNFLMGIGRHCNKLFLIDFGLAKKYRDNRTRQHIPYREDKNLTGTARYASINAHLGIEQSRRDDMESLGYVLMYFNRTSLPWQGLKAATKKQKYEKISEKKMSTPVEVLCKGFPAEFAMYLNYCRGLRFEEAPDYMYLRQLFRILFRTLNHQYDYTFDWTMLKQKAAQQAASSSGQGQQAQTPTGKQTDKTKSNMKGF
Readout label: Kd (µM)
Could you give me the number in µM? Just the number is fine.

For this compound ( CN1CCN(CCOc2cc(OC3CCOCC3)c3c(Nc4c(Cl)ccc5c4OCO5)ncnc3c2)CC1 ), measured Kd is 9.35

---

system: H2077 NSCLC cell line; experiment: Cellular growth inhibition (CellTiter Glo viability assay); type: cell-based; conditions: Homo sapiens, read-out: Sensitivity Dasatinib; H2077
pIC50: −log10 of the molar value.
Readout label: pIC50

Tested on H2077 NSCLC cell line, the item Cc1nc(Nc2ncc(C(=O)Nc3c(C)cccc3Cl)s2)cc(N2CCN(CCO)CC2)n1 showed pIC50 equal to < 6.00

---

Molecular target: BMPR2 (Homo sapiens)
Construct: PC9 cells were lysed in buffer containing 20 mM HEPES pH 7.5; endogenous in cells
Sequence (Q13873 27-1038): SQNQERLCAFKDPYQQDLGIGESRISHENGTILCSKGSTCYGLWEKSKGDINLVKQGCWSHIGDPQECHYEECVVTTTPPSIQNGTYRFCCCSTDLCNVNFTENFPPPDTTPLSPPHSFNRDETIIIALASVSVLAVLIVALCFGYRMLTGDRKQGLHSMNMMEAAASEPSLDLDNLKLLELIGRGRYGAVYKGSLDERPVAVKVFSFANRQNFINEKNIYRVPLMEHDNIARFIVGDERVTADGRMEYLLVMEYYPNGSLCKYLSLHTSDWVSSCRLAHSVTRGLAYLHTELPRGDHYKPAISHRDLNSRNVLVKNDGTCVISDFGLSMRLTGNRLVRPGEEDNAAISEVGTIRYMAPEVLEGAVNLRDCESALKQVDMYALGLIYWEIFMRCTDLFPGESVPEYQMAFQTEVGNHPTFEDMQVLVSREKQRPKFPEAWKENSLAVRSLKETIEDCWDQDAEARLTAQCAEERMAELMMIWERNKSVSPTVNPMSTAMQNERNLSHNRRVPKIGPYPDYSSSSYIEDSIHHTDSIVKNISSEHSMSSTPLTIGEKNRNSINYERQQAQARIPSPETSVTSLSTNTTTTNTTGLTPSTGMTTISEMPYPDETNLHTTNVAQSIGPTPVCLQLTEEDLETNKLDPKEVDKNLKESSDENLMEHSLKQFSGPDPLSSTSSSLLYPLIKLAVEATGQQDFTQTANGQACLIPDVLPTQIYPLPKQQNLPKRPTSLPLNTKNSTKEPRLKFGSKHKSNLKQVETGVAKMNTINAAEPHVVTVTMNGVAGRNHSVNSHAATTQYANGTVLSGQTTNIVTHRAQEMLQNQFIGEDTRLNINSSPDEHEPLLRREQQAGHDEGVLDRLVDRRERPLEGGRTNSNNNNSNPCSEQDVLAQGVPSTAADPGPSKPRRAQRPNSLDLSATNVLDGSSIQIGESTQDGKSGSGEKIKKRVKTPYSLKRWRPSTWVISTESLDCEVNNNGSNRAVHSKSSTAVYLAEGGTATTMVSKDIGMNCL
Test: KinAffinity target profiling
Details: PC9 cell extract, read-out: KD_free
Readout label: pKd
Remember the convention: pKd equals -log10 of concentration in molar.

Recorded pKd (compound CN1CCN(CCOc2cc(OC3CCOCC3)c3c(Nc4c(Cl)ccc5c4OCO5)ncnc3c2)CC1 ): 4.78
